system: LK-2; test: relative viability (nuclei count vs DMSO), 5 days (fraction); higher = more cells survive; settings: first compound 0.3162 µM
What relative viability was measured for each of the following?
Numbers only.

| compound | relative viability |
| --- | --- |
| CCN(CC)CCCCNc1ncc2cc(-c3cc(OC)cc(OC)c3)c(NC(=O)NC(C)(C)C)nc2n1 + C[C@@H](Oc1cc(-c2cnn(C3CCNCC3)c2)cnc1N)c1c(Cl)ccc(F)c1Cl [Crizotinib] (partner 1 µM) | 0.246 |
| O=c1cc(N2CCOCC2)oc2c(-c3cccc4c3sc3ccccc34)cccc12 + Cc1cc(Nc2cc(N3CCN(C)CC3)nc(Sc3ccc(NC(=O)C4CC4)cc3)n2)n[nH]1 [Tozasertib] (partner 0.1 µM) | 0.166 |
| O=c1cc(N2CCOCC2)oc2c(-c3cccc4c3sc3ccccc34)cccc12 + CC(=O)Nc1cccc(-n2c(=O)n(C3CC3)c(=O)c3c(Nc4ccc(I)cc4F)n(C)c(=O)c(C)c32)c1 [Trametinib] (partner 0.02 µM) | 0.515 |

Could you tell me relative viability for each of these compounds? They are listed below.
1. O=c1cc(N2CCOCC2)oc2c(-c3cccc4c3sc3ccccc34)cccc12 + CS(=O)(=O)CCNCc1ccc(-c2ccc3ncnc(Nc4ccc(OCc5cccc(F)c5)c(Cl)c4)c3c2)o1 [Lapatinib] (partner 2 µM)
2. CCN(CC)CCCCNc1ncc2cc(-c3cc(OC)cc(OC)c3)c(NC(=O)NC(C)(C)C)nc2n1 + CC(=O)Nc1cccc(-n2c(=O)n(C3CC3)c(=O)c3c(Nc4ccc(I)cc4F)n(C)c(=O)c(C)c32)c1 [Trametinib] (partner 0.02 µM)

Response:
[0.909, 0.597]

---

test system: HCC-78; experiment: relative viability (nuclei count vs DMSO), 5 days (fraction); higher = more cells survive; details: first compound 0.3162 µM
Could you please report measured relative viability for the items listed next?
One number for each entry.

| molecule | measurement.target | relative viability |
| --- | --- | --- |
| O=c1cc(N2CCOCC2)oc2c(-c3cccc4c3sc3ccccc34)cccc12 + NC(=O)Nc1cc(-c2cccc(F)c2)sc1C(=O)N[C@H]1CCCNC1 [AZD7762] (partner 0.2 µM) | HCC-78 | 0.615 |

Record relative viability for all entries; do not skip any.
1. O=c1cc(N2CCOCC2)oc2c(-c3cccc4c3sc3ccccc34)cccc12 + CS(=O)(=O)N1CCN(Cc2cc3nc(-c4cccc5[nH]ncc45)nc(N4CCOCC4)c3s2)CC1 [Pictilisib] (partner 1 µM)
2. O=c1cc(N2CCOCC2)oc2c(-c3cccc4c3sc3ccccc34)cccc12 + COc1cccc2cc(-c3nc([C@H]4CC[C@H](C(=O)O)CC4)n4ncnc(N)c34)[nH]c12 [OSI-027] (partner 0.5 µM)
3. O=c1cc(N2CCOCC2)oc2c(-c3cccc4c3sc3ccccc34)cccc12 + CS(=O)(=O)CCNCc1ccc(-c2ccc3ncnc(Nc4ccc(OCc5cccc(F)c5)c(Cl)c4)c3c2)o1 [Lapatinib] (partner 2 µM)
4. O=c1cc(N2CCOCC2)oc2c(-c3cccc4c3sc3ccccc34)cccc12 + COc1cc2c(Oc3ccc(NC(=O)C4(C(=O)Nc5ccc(F)cc5)CC4)cc3F)ccnc2cc1OCCCN1CCOCC1 [Foretinib] (partner 0.25 µM)
5. CCN(CC)CCCCNc1ncc2cc(-c3cc(OC)cc(OC)c3)c(NC(=O)NC(C)(C)C)nc2n1 + CC1(C)CCC(c2ccc(Cl)cc2)=C(CN2CCN(c3ccc(C(=O)NS(=O)(=O)c4ccc(N[C@H](CCN5CCOCC5)CSc5ccccc5)c(S(=O)(=O)C(F)(F)F)c4)cc3)CC2)C1 [Navitoclax] (partner 0.5 µM)
6. O=c1cc(N2CCOCC2)oc2c(-c3cccc4c3sc3ccccc34)cccc12 + Nc1nc2[nH]cc(CCc3ccc(C(=O)N[C@@H](CCC(=O)O)C(=O)O)cc3)c2c(=O)[nH]1 [Pemetrexed] (partner 0.2 µM)
7. O=c1cc(N2CCOCC2)oc2c(-c3cccc4c3sc3ccccc34)cccc12 + N=C(N)NC(=N)NCCc1ccccc1 [Phenformin] (partner 250 µM)

Response:
0.242
0.347
0.785
0.581
0.809
0.877
0.622

Query: Quick check: relative viability on HCC-78, item CCN(CC)CCCCNc1ncc2cc(-c3cc(OC)cc(OC)c3)c(NC(=O)NC(C)(C)C)nc2n1 + O=C(c1cc(Cc2n[nH]c(=O)c3ccccc23)ccc1F)N1CCN(C(=O)C2CC2)CC1 [Olaparib] (partner 8 µM) ?
Response: 0.94

---

test system: 201T; test: relative viability (nuclei count vs DMSO), 5 days (fraction); higher = more cells survive; conditions: first compound 0.8 µM
With a cut-off of 0.9, any relative viability strictly below it is called Condition met; any relative viability meeting it or above is called Condition not met.

| molecule | label.value |
| --- | --- |
| COc1nc(C)cnc1NS(=O)(=O)c1cccnc1-c1ccc(-c2nnco2)cc1 [Zibotentan] + CC(=O)Nc1cccc(-n2c(=O)n(C3CC3)c(=O)c3c(Nc4ccc(I)cc4F)n(C)c(=O)c(C)c32)c1 [Trametinib] (partner 0.02 µM) | Condition met |
| COc1nc(C)cnc1NS(=O)(=O)c1cccnc1-c1ccc(-c2nnco2)cc1 [Zibotentan] + Nc1ncn([C@H]2C[C@H](O)[C@@H](CO)O2)c(=O)n1 [Decitabine] (partner 2 µM) | Condition met |

Query: Hi there! Is relative viability for O=c1cc(-c2cccc3c2Sc2ccccc2S3)oc(N2CCOCC2)c1 + O=C(CCCCCCC(=O)Nc1ccccc1)NO [Vorinostat] (partner 1 µM) below 0.9, do you know?
Response: Condition not met

Query: Find out if reported relative viability for COc1nc(C)cnc1NS(=O)(=O)c1cccnc1-c1ccc(-c2nnco2)cc1 [Zibotentan] + Cc1cc(Nc2cc(N3CCN(C)CC3)nc(Sc3ccc(NC(=O)C4CC4)cc3)n2)n[nH]1 [Tozasertib] (partner 0.1 µM) is less than 0.9
Response: Condition not met

Query: Lab note: confirm whether the reported relative viability for this molecule is below 0.9, equality not counting. molecule: COc1nc(C)cnc1NS(=O)(=O)c1cccnc1-c1ccc(-c2nnco2)cc1 [Zibotentan] + Nc1nc2[nH]cc(CCc3ccc(C(=O)N[C@@H](CCC(=O)O)C(=O)O)cc3)c2c(=O)[nH]1 [Pemetrexed] (partner 0.2 µM)
Response: Condition met

---

test system: PC-3 [JPC-3]; test: relative viability (nuclei count vs DMSO), 5 days (fraction); higher = more cells survive; conditions: first compound 0.2 µM
The label is criterion met for relative viability below 0.6 and criterion not met for relative viability equal to or exceeding 0.6.

Example results:
| molecule | measurement.target | label.value |
| --- | --- | --- |
| COCC1(CO)C(=O)C2CCN1CC2 (stereo not given) [PRIMA-1MET] + O=C(c1cc(Cc2n[nH]c(=O)c3ccccc23)ccc1F)N1CCN(C(=O)C2CC2)CC1 [Olaparib] (partner 8 µM) | PC-3 [JPC-3] | criterion not met |
| COCC1(CO)C(=O)C2CCN1CC2 (stereo not given) [PRIMA-1MET] + N=C(N)NC(=N)NCCc1ccccc1 [Phenformin] (partner 250 µM) | PC-3 [JPC-3] | criterion met |
| COCC1(CO)C(=O)C2CCN1CC2 (stereo not given) [PRIMA-1MET] + COc1cc2c(Oc3ccc(NC(=O)C4(C(=O)Nc5ccc(F)cc5)CC4)cc3F)ccnc2cc1OCCCN1CCOCC1 [Foretinib] (partner 0.25 µM) | PC-3 [JPC-3] | criterion not met |

Query: Would you kindly verify if relative viability of COCC1(CO)C(=O)C2CCN1CC2 (stereo not given) [PRIMA-1MET] + COc1cccc2cc(-c3nc([C@H]4CC[C@H](C(=O)O)CC4)n4ncnc(N)c34)[nH]c12 [OSI-027] (partner 0.5 µM) is strictly less than 0.6?
Response: criterion not met

---

Consider the following compounds; for each one, report its relative viability.
system: NCI-H358; experiment: relative viability (nuclei count vs DMSO), 5 days (fraction); higher = more cells survive; conditions: first compound 0.8 µM

Take a look at these entries with their results.
| compound | readout.name | obs.value |
| --- | --- | --- |
| O=c1cc(-c2cccc3c2Sc2ccccc2S3)oc(N2CCOCC2)c1 + N=C(N)NC(=N)NCCc1ccccc1 [Phenformin] (partner 250 µM) | relative viability | 0.378 |
| O=c1cc(-c2cccc3c2Sc2ccccc2S3)oc(N2CCOCC2)c1 + Nc1ncn([C@H]2C[C@H](O)[C@@H](CO)O2)c(=O)n1 [Decitabine] (partner 2 µM) | relative viability | 0.2 |
| O=c1cc(-c2cccc3c2Sc2ccccc2S3)oc(N2CCOCC2)c1 + C[C@]1(O)C[C@@H](c2nc(-c3ccc4ccc(-c5ccccc5)nc4c3)c3c(N)nccn32)C1 [Linsitinib] (partner 1 µM) | relative viability | 0.79 |
| O=c1cc(-c2cccc3c2Sc2ccccc2S3)oc(N2CCOCC2)c1 + Cc1nc(NC(=O)N2CCC[C@H]2C(N)=O)sc1-c1ccnc(C(C)(C)C(F)(F)F)c1 [Alpelisib] (partner 2 µM) | relative viability | 0.816 |
| O=c1cc(-c2cccc3c2Sc2ccccc2S3)oc(N2CCOCC2)c1 + CS(=O)(=O)CCNCc1ccc(-c2ccc3ncnc(Nc4ccc(OCc5cccc(F)c5)c(Cl)c4)c3c2)o1 [Lapatinib] (partner 2 µM) | relative viability | 0.42 |
| O=c1cc(-c2cccc3c2Sc2ccccc2S3)oc(N2CCOCC2)c1 + COc1cccc2cc(-c3nc([C@H]4CC[C@H](C(=O)O)CC4)n4ncnc(N)c34)[nH]c12 [OSI-027] (partner 0.5 µM) | relative viability | 0.815 |

Query: Which relative viability reading was recorded for the compound O=c1cc(-c2cccc3c2Sc2ccccc2S3)oc(N2CCOCC2)c1 + COc1cc2c(Oc3ccc(NC(=O)C4(C(=O)Nc5ccc(F)cc5)CC4)cc3F)ccnc2cc1OCCCN1CCOCC1 [Foretinib] (partner 0.25 µM) ?
Response: 0.635
